# Species: Homo sapiens
# assayProcedure: Inhibition of human DNA topoisomerase 2 at 200 uM
The source made the active and inactive calls. The calls are words filed in the database; no cut-off is given here.
measuredEndpoint: inhibition

Recorded results for 5 compounds are shown here.
compound: CCOc1c2c(c(-c3cc(OC)c(OC)c(OC)c3)c3cc4c(cc13)OCO4)C(=O)OC2 [DEHYDROPODOPHYLLOTOXIN ETHYL ETHER]
inhibition: inactive

compound: CCOc1c2c(c(-c3cc(OC)c(O)c(OC)c3)c3cc4c(cc13)OCO4)C(=O)OC2
inhibition: inactive

compound: CCCOc1c2c(c(-c3cc(OC)c(OC)c(OC)c3)c3cc4c(cc13)OCO4)C(=O)OC2 [DEHYDROPODOPHYLLOTOXIN PROPYL ETHER]
inhibition: inactive

compound: COc1cc(-c2c3c(c(O)c4cc5c(cc24)OCO5)COC3=O)cc(OC)c1O
inhibition: inactive

compound: COc1cc(-c2c3c(c(O)c4cc5c(cc24)OCO5)COC3=O)cc(OC)c1OC [DEHYDROPODOPHYLLOTOXIN]
inhibition: inactive

Here is another compound to look at.
What value of inhibition has been recorded for this entry: COc1cc([C@@H]2c3cc4c(cc3[C@@H](O[C@@H]3O[C@@H]5CO[C@@H](C)O[C@H]5[C@H](O)[C@H]3O)[C@H]3COC(=O)[C@H]23)OCO4)cc(OC)c1O [ETOPOSIDE] 80%
